Data origin: PubChem BioAssay (NCI)

System: OVCAR-5 ovarian
Experiment: NCI-60 one-dose screen, 48 h (100 = growth as untreated, 0 = no growth, -100 = all killed)
Settings: 10 µM unless noted
Protocol: Growth inhibition of the OVCAR-5 human tumor cell line is measured as a screen for anti-cancer activity. Cells are grown in 96 well plates and exposed to the test compound for 48 hours. Compounds are tested at a single concentration, which is 10^-5 M for most compounds. The reported endpoint is percent growth (GI% or GIPRCNT), where numbers from 0 - 100% represent growth inhibition, and numbers from -100% - 0 represent cell death. For example, a value of 40 represents 60% growth inhibition. […]
About 83,000 compounds went through this panel and 20% of them were active in at least one assay; those are over-represented in the sample as a whole.
# Fulfilled = growth below 70% (exclusive); Not fulfilled = growth at/above 70%

{"compound": "O=c1/c(=C\\c2ccc(-c3ccccc3)o2)sc2nc(-c3ccccc3)nn12", "label": "Not fulfilled"}
{"compound": "CN1C(=O)N(c2ccccc2)C2N=C(N/N=C/c3ccccc3)SC21 (stereo not given)", "label": "Fulfilled"}
{"compound": "COC(=O)C1CN(S(=O)(=O)/N=C2\\NC(=O)NC2=C(Cl)Cl)C1", "label": "Not fulfilled"}
{"compound": "COc1cc(/C=C/C(=O)c2ccc(F)cc2)ccc1Oc1nc(NCCO)nc(N2CCOCC2)n1", "label": "Not fulfilled"}
{"compound": "Nc1c(C(=O)c2ccc(Br)cc2)oc2nc(-c3cnccn3)cc(-c3cccs3)c12", "label": "Not fulfilled"}
{"compound": "COc1cccc(COc2ccc(/C=C3/C(=O)Nc4cc(Cl)ccc43)cc2)c1", "label": "Not fulfilled"}
{"compound": "Cc1nc(-c2cc3ccccc3oc2=O)ccc1C(=O)/C=C/c1ccc(Cl)c(Cl)c1", "label": "Not fulfilled"}
{"compound": "Cc1ccc(CNS(=O)(=O)/N=C2\\NC(=O)NC2=C(Cl)Cl)cc1", "label": "Not fulfilled"}
{"compound": "C/C(=C(/c1ccc(Cl)cc1)c1ccc(OCCN)cc1)c1ccc(C)cc1", "label": "Not fulfilled"}
{"compound": "Cc1c(Nc2nnc(SCC(=O)Nc3sc4c(c3C#N)CCCC4)s2)c(=O)n(-c2ccccc2)n1C", "label": "Not fulfilled"}
{"compound": "COc1cc2nc(-c3ccc(Cl)cc3)cc(OCCCNCC3CCCO3)c2cc1OC (stereo not given)", "label": "Fulfilled"}
{"compound": "O=C(NNc1nc2cc(F)ccc2n2c(CN3CC4(COC4)C3)ccc12)c1cnccn1", "label": "Fulfilled"}
{"compound": "Cn1ccnc1C(=O)/C=C/c1ccc(NC(=O)Nc2ccc(F)cc2)cc1", "label": "Fulfilled"}
{"compound": "CC(C)NC(=O)c1cc(-c2ccc(NC(=O)Nc3ccc(N4CCOCC4)c(C(F)(F)F)c3)cc2)nc2cccnc12", "label": "Not fulfilled"}
{"compound": "CCOC(=O)c1c(Nc2ccccc2)nn2c(N)c(C#N)c(-c3ccccc3)nc12", "label": "Not fulfilled"}
{"compound": "C=CCn1c(SCC(=O)c2ccccc2)nnc1-c1c[nH]c2ccccc12", "label": "Not fulfilled"}
{"compound": "CN1C(=S)N(C)C2C1NN=C1SC(c3ccccc3)=CC(=O)N12 (stereo not given)", "label": "Not fulfilled"}
{"compound": "O=C(N/N=C/c1ccc([N+](=O)[O-])s1)c1[nH]c2ccc(Br)cc2c1-c1ccccc1", "label": "Fulfilled"}
{"compound": "CC(=O)Oc1ccccc1C(=O)Nc1cc(C(C)C)ccc1C", "label": "Fulfilled"}
{"compound": "COc1cc(OC)c(C2SCC(=O)N2Nc2ncnc3ccccc23)cc1OC (stereo not given)", "label": "Not fulfilled"}
{"compound": "Cn1ccnc1C(=O)/C=C/c1ccc(NC(=O)Nc2ccccc2)cc1", "label": "Fulfilled"}
{"compound": "Cc1cc2nc3c4cc(Cl)ccc4n(CC(=O)NCCN(C)C)c3nc2cc1C", "label": "Fulfilled"}
{"compound": "OC1CCN(CCCOc2c3ccccc3nc3c2oc2ccc(Cl)cc23)CC1", "label": "Fulfilled"}
{"compound": "CN1CCN(Cc2ccc(NC(=O)c3cncc(C#Cc4cnc5[nH]ncc5c4)c3)cc2C(F)(F)F)CC1", "label": "Fulfilled"}
{"compound": "Clc1ccc2oc3c(NCCCN4CCOCC4)c4ccccc4nc3c2c1", "label": "Fulfilled"}
{"compound": "C#Cc1nc(C2=C(C)C(OC(C)=O)/C(=N/OC(C)=O)C2)cs1 (stereo not given)", "label": "Fulfilled"}
{"compound": "CC(=O)c1ccc(Nc2nc(SC(C)C)nc(-c3ccccc3)c2C#N)cc1", "label": "Not fulfilled"}
{"compound": "COc1ccc(NC2=CC(=O)C(C)=C(C)C2=O)cc1", "label": "Not fulfilled"}
